Numbers sourced from paper PMC4522133.

Catalogue of compounds with associated plasma concentration
Conditions: Patient ID 128, CYP2D6 functional group EM/EM
Record the value in ng/mL, omitting the unit from your answer.

> print(dat)
                                   compound  resultvalue
1  CC/C(=C(\c1ccc(O)cc1)c1ccc(OCCNC)cc1)c1ccccc1 [(Z)-Endoxifen 3-OH-NDM-Tam]         8.98
2  CC/C(=C(/c1ccc(OCCNC)cc1)c1ccc(O[C@@H]2O[C@H](C(=O)O)[C@@H](O)[C@H](O)[C@H]2O)cc1)c1ccccc1        0.830
3  CC/C(=C(\c1ccccc1)c1ccc(OCCN(C)C)cc1)c1ccccc1       224.15
4  CCC(=C(c1ccccc1)c1ccc(OCCNC)cc1)c1ccc(O)cc1        6.092
5  CC(O)C(=C(c1ccccc1)c1ccc(OCCN(C)C)cc1)c1ccccc1 (racemic) [(Z)-a-OH-Tam]        0.093

Query: Query (compound): CC(O)C(=C(c1ccccc1)c1ccc(OCCN(C)C)cc1)c1ccccc1 (racemic) [(E)-a-OH-Tam] ; field requested: plasma concentration
Response: 0.450

Query: # get_value(readout='plasma concentration', item= `CC/C(=C(\c1ccccc1)c1ccc(OCCN(C)C)cc1)c1ccc(O)cc1` )
Response: 4.87
